test system: CCRF-CEM; assay: NCI tumour cell line growth inhibition, 48 h
The source made the active and inactive calls. No stated cut-off is given here; in the data, active = GI50 up to about 1.1 µM and inactive = higher.
measuredProperty: GI50

Please state recorded GI50 (tested on CCRF-CEM) of O=C1CSC(c2ccc(Cl)cc2)N1c1ccc(-c2ccc(-n3c(-c4ccccc4)nc4ccccc4c3=O)cc2)cc1 (stereo unspecified)
30.6 µM (inactive)

Please state recorded GI50 (tested on CCRF-CEM) of CC[P+]1(CC)CCCC1
> 100 µM (inactive)

Please state recorded GI50 (tested on CCRF-CEM) of CCc1cccc2c3c([nH]c12)-c1ccccc1NC(=O)C3
> 100 µM (inactive)

Please state recorded GI50 (tested on CCRF-CEM) of Cc1ccc(S(=O)(=O)N2CCN(CCN(C)CCN3CCN(S(=O)(=O)c4ccc(C)cc4)CC3)CC2)cc1
18.7 µM (inactive)

Please state recorded GI50 (tested on CCRF-CEM) of CCCCCCCCCC(=O)CC(=O)c1c(O)cccc1O
27.4 µM (inactive)

Please state recorded GI50 (tested on CCRF-CEM) of NC(=O)NC(=O)Nc1ccc(Br)cc1
> 4.65 µM (inactive)

---

I'd appreciate it if you could supply GI50 values for the items below.
tested on: SF-295; assay: NCI tumour cell line growth inhibition, 48 h
Activity calls are given as the source filed them. No stated cut-off is given here; in the data, active = GI50 up to about 1.1 µM and inactive = higher.

Param item = CN(N=O)C(=O)NC(CCCCNC(=O)OCc1ccccc1)C(=O)OCc1ccccc1 (stereo not given) ; retrieve measured GI50.
32.4 µM (inactive)

Param item = CC1CCC2C(C)C(OC(=O)CCC(=O)O)OC3OC4(C)CCC1C32OO4 (stereo not given) ; retrieve measured GI50.
15.8 µM (inactive)

Param item = CCOC(=O)NC(=S)NN(C)C1=NCC(C)(C)S1 ; retrieve measured GI50.
> 100 µM (inactive)

Param item = Cc1ccccc1C(=O)N1CCc2c([nH]c3ccccc23)C1 ; retrieve measured GI50.
29.1 µM (inactive)

Param item = O=[N+]([O-])c1ccc2[nH]c(-c3ccc(Cl)cc3)nc2c1 ; retrieve measured GI50.
20.3 µM (inactive)

Param item = Nc1nn2c(C(Br)Br)cc(C(Br)Br)nc2c1[N+](=O)[O-] ; retrieve measured GI50.
1.77 µM (inactive)

Param item = COC(=O)C12C3C=CC(O3)C1C1C=CC2O1 (stereo not given) ; retrieve measured GI50.
> 100 µM (inactive)

Param item = COc1c2c(cc3c1C1(O)Cc4ccc5c(c4C[N+]1(C)CC3)OCO5)OCO2 (stereo not given) ; retrieve measured GI50.
> 100 µM (inactive)

Param item = CC(=O)Nc1ccc(Nc2cc(=O)n(C)c(=O)[nH]2)cc1 ; retrieve measured GI50.
> 100 µM (inactive)

Param item = O=C1Nc2cccc3ncn(c23)C2=C1CCCC2 ; retrieve measured GI50.
> 100 µM (inactive)

Param item = CC1=C(C(=O)Nc2ccccc2)C(c2ccc(C3C(C(=O)Nc4ccccc4)=C(C)NC(C)=C3C(=O)Nc3ccccc3)cc2)C(C(=O)Nc2ccccc2)=C(C)N1 ; retrieve measured GI50.
2.88 µM (inactive)

Param item = O=C(O)CCNc1[nH]cnc2ncnc1-2 ; retrieve measured GI50.
> 100 µM (inactive)

Param item = CCOC(=O)CCCN ; retrieve measured GI50.
> 100 µM (inactive)

Param item = COc1cc2cc(C(=O)N3CC(CCl)c4ccc([N+](C)(C)Cc5ccccc5[N+](=O)[O-])cc43)[nH]c2c(OC)c1OC (stereo not given) ; retrieve measured GI50.
1.47 µM (inactive)

Param item = CN1C2CCC1CC(CC(=O)NC(c1ccc(F)cc1)c1ccc(F)cc1)C2 (stereo not given) ; retrieve measured GI50.
> 100 µM (inactive)

---

test system: NCI-H23; experiment: NCI tumour cell line growth inhibition, 48 h
Calls of active or inactive are those of the source. No stated cut-off is given here; in the data, active = GI50 up to about 1.1 µM and inactive = higher.
Reply using exactly one outcome from TRUE (active), FALSE (inactive)

// param item: COc1ccc(/C=c2\sc3n(c2=O)CCN=3)cc1 ; yields the recorded call
FALSE

// param item: Nc1nccc2c1ncn2C1C=C(CO)C(O)C1O (stereo unspecified) ; yields the recorded call
FALSE

// param item: Cc1ccc(C)c(N2C(=O)C(=O)C(c3nc4ccccc4s3)/C(=N/N)C2=O)c1 (stereo unspecified) ; yields the recorded call
FALSE

// param item: CC(=O)OCCOCNC(=S)N/N=C/c1ccc([N+](=O)[O-])s1 ; yields the recorded call
FALSE

// param item: COC(=O)C1(Cc2ccccc2)Cc2ccccc2C1=O (stereo unspecified) ; yields the recorded call
FALSE

// param item: CC(=O)c1ccc2c(c1)CC1(C2)Cc2ccccc2C1=O (stereo unspecified) ; yields the recorded call
FALSE

// param item: Cc1ccc(S(=O)(=O)N2CCN(CCN(C)CCN3CCN(S(=O)(=O)c4ccc(C)cc4)CC3)CC2)cc1 ; yields the recorded call
FALSE

// param item: COc1ccc(CCc2cc(OC)c(OC)c(OC)c2)cc1 ; yields the recorded call
TRUE

// param item: Cc1c(C)c2ccc(OC(C)C(=O)O)cc2oc1=O (stereo unspecified) ; yields the recorded call
FALSE

// param item: O=C(/C=C/c1ccccc1)CCC1C(=O)NC(=O)NC1=O ; yields the recorded call
FALSE

// param item: O=C(CSc1nc2nncc-2c(O)[nH]1)c1ccc(Cl)cc1 ; yields the recorded call
FALSE

---

system: MDA-MB-231; experiment: NCI tumour cell line growth inhibition, 48 h
Calls of active or inactive are those of the source. Cut-off read from the data, not from the text of the source: active = GI50 up to about 1.1 µM and inactive = higher.
Reply using exactly one outcome from YES (active), NO (inactive)

// param item: O=C(CSc1nc2nncc-2c(O)[nH]1)c1ccc(Cl)cc1 ; yields the recorded call
NO

// param item: CC1=CCC[C@]2(C)C1=CC(=O)O[C@H]2c1ccoc1 ; yields the recorded call
NO

// param item: CC(=O)OC12c3ccccc3C(c3ccccc31)C1C(=O)N(N=C(C)C)C(=O)C12 (configuration not stated) ; yields the recorded call
NO

// param item: CCOP(=O)(COCCn1ncc(=O)[nH]c1=O)OCC ; yields the recorded call
NO

// param item: CC(=O)/C(=C/NC(=S)Nc1ccccc1)C(=O)Nc1ccccc1C ; yields the recorded call
NO

// param item: S=c1ssc2c3ssc(=S)c3n(Cc3ccccc3)c12 ; yields the recorded call
NO

// param item: CCOC(=O)/C(C#N)=C(/NNc1ccccc1)c1ccncc1C(=O)O ; yields the recorded call
NO

// param item: C/C=C1\C[C@@H]2C(OC)Nc3cc(O)c(OC)cc3C(=O)N2C1 (some centres not stated) ; yields the recorded call
YES

// param item: O=c1[nH]c(=O)n(C2C(CO)OC(CO)C2O)cc1F (configuration not stated) ; yields the recorded call
NO

// param item: Cc1ccccc1C(=O)N1CCc2c([nH]c3ccccc23)C1 ; yields the recorded call
NO

// param item: CC1C(c2ccccc2)O[B-](F)(c2ccccc2)[NH+]1C (configuration not stated) ; yields the recorded call
NO

// param item: C[C@]12CC/C(=N\O)C=C1CC[C@@H]1[C@@H]2CC[C@]2(C)C(=N/O)/C(=C/c3ccncc3)C[C@@H]12 ; yields the recorded call
NO

// param item: COC(=O)C(/C(=N/N)C(=O)Nc1ccc(C)c(C)c1)c1nc2ccc(Cl)cc2nc1O (configuration not stated) ; yields the recorded call
NO

// param item: CC(C)(C)OC(=O)NCCCCC(NC(=O)OCc1ccccc1)C(N)=O (configuration not stated) ; yields the recorded call
NO

// param item: COC(=O)/C=C/CC(=O)NS(C)(=O)=O ; yields the recorded call
NO

// param item: O=C(CCCC1Cc2ccccc2C1=O)c1ccccc1 (configuration not stated) ; yields the recorded call
NO

// param item: O=c1cc(-c2ccccc2)nc(-n2[nH]c3c(c2=O)CCCC3)[nH]1 ; yields the recorded call
NO

// param item: COc1c(OC(C)=O)c(OC(C)=O)cc2c1-c1ccc(SC)c(=O)cc1C(NC(C)=O)CC2 (configuration not stated) ; yields the recorded call
YES

// param item: CCc1nc(N)nc(N)c1-c1ccc(NCCN)c([N+](=O)[O-])c1 ; yields the recorded call
NO

// param item: Sc1nnc(C23CC4CC(CC(C4)C2)C3)n1-c1ccc(Cl)cc1 ; yields the recorded call
NO

// param item: N=C(N)NCCCC(NC(=O)OCCCCCn1ccc(N)nc1=O)C(=O)O (configuration not stated) ; yields the recorded call
NO

// param item: CC(C)(C)OC/C=C(/CO)[C@@H]1C=C[C@H](O)C1 ; yields the recorded call
NO

---

tested on: KM12; test: NCI tumour cell line growth inhibition, 48 h
Activity calls are given as the source filed them. No stated cut-off is given here; in the data, active = GI50 up to about 1.1 µM and inactive = higher.
Reply using exactly one outcome from Y (active), N (inactive)

// param item: O=C1CSC(c2ccc(Cl)cc2)N1c1ccc(-c2ccc(-n3c(-c4ccccc4)nc4ccccc4c3=O)cc2)cc1 (configuration not stated) ; yields the recorded call
N

// param item: CC(=O)OC12c3ccccc3C(c3ccccc31)C1C(=O)N(N=C(C)C)C(=O)C12 (configuration not stated) ; yields the recorded call
N

// param item: COc1ccc(CCCCNCc2cccc(CNCCCCc3ccc(OC)cc3)c2)cc1 ; yields the recorded call
N

// param item: CCCCCCCCCCCCCCCC(=O)N[C@H]1CCc2cc(OC)c(OC)c(OC)c2-c2ccc(SC)c(=O)cc21 ; yields the recorded call
Y

// param item: COc1ccccc1C1C(Cl)C(=O)N1NC(=O)Cc1ccccc1 (configuration not stated) ; yields the recorded call
N

// param item: Cc1c(C)c2ccc(OC(C)C(=O)O)cc2oc1=O (configuration not stated) ; yields the recorded call
N

// param item: Cn1c(-c2cccs2)cc(-c2ccccc2)c1-c1cccs1 ; yields the recorded call
N

// param item: O=C(Nc1sccc1S(=O)(=O)c1ccc(Cl)cc1)C(F)(F)F ; yields the recorded call
N

// param item: O=C(/C=C/c1ccccc1)CCC1C(=O)NC(=O)NC1=O ; yields the recorded call
N

// param item: O/N=C(\CC(O)(C(F)(F)F)C(F)(F)F)c1cccs1 ; yields the recorded call
N

// param item: Nc1ncc2c(n1)-c1ccccc1OC2NC1CC1 (configuration not stated) ; yields the recorded call
N

// param item: N#CC(C(=O)CCCC(=O)Nc1ccccc1[N+](=O)[O-])c1c(Cl)cccc1Cl (configuration not stated) ; yields the recorded call
N

// param item: CC1=NCCc2cc3[nH]c4ccccc4c3cc21 ; yields the recorded call
N

// param item: CCCCCCCCCCCCOC(=S)NCCCC ; yields the recorded call
N

// param item: CC(=O)Nc1ccc(Nc2cc(=O)n(C)c(=O)[nH]2)cc1 ; yields the recorded call
N

// param item: CC1=CCC[C@]2(C)C1=CC(=O)O[C@H]2c1ccoc1 ; yields the recorded call
N

// param item: COC(=O)C(/C(=N/N)C(=O)Nc1ccc(C)c(C)c1)c1nc2ccc(Cl)cc2nc1O (configuration not stated) ; yields the recorded call
N

// param item: O=C1C=C(c2c(O)ccc3ccccc23)c2ccccc2C1=O ; yields the recorded call
N

// param item: COC(=O)c1ccccc1C1CN=NC12Cc1c(ccc3c1CCC3)C2=O (configuration not stated) ; yields the recorded call
N

// param item: C/N=C(\S)N/N=C/C(C)=N/N/C(S)=N/C ; yields the recorded call
N

// param item: Cc1cc(NS(=O)(=O)c2ccc(Nc3c4ccccc4nc4c(C(=O)Nc5ccc(S(=O)(=O)N=C(N)N)cc5)cccc34)cc2)no1 ; yields the recorded call
N

// param item: O=c1[nH]c(=O)n(C2CC(O)C(CO)O2)cc1C#Cc1c(F)c(F)c(F)c(F)c1F (configuration not stated) ; yields the recorded call
N

// param item: CC1=CC(=O)/C(=C/NC(=S)NCc2ccccc2)C(=O)O1 ; yields the recorded call
N

// param item: O/N=C1\C(=C\c2ccc3c(c2)OCCO3)CCCC1C(NO)c1ccc2c(c1)OCCO2 (configuration not stated) ; yields the recorded call
N

// param item: CCc1n[nH]c(=O)n1NC(=O)c1ccccc1C(=O)O ; yields the recorded call
N

// param item: CSc1nc(NC2CCCC2)c2cc[nH]c2n1 ; yields the recorded call
N

// param item: COC1CC(O[C@H]2CC[C@@]3(C)C(=CCC4(O)C3CCC35C(=O)OC6(C)O[C@@]43CCC65)C2)OC(C)C1O (some centres not stated) ; yields the recorded call
N

// param item: Cn1c(=O)cc(NNc2ccc(Br)cc2)[nH]c1=O ; yields the recorded call
N

// param item: COc1nc2c(nc(N)n2C2OC(CO)C(O)C(O)C2O)c(=O)n1C (configuration not stated) ; yields the recorded call
N

// param item: O=C(Nc1nccs1)NS(=O)(=O)n1cnc2ccccc21 ; yields the recorded call
N

// param item: CC(C)(C)C1C=C(Sc2ccccc2)C(=O)O1 (configuration not stated) ; yields the recorded call
N

// param item: COc1cc(OC)c2c3c(OC)cc(OC)c4c(=O)c(O)c(C[C@@H](C)O)c(c5c(C[C@@H](C)O)c(O)c(=O)c1c25)c43 ; yields the recorded call
N

// param item: C1CSC(=[N+]2CC[N+](=C3SCCS3)CC2)S1 ; yields the recorded call
N

// param item: O=C1O[C@@H](c2ccc3c(c2)OCO3)C2C(=O)O[C@@H](c3ccc4c(c3)OCO4)C12 (some centres not stated) ; yields the recorded call
N

// param item: CCC1(CN(C)C)CC/C(=C\c2ccc(OC)cc2)C1=O (configuration not stated) ; yields the recorded call
N

// param item: CC(C)(C)CC(C)(C)c1cc2c(O)c(c1)Cc1cc(C(C)(C)CC(C)(C)C)cc(c1O)Cc1cc(C(C)(C)CC(C)(C)C)cc(c1O)Cc1cc(C(C)(C)CC(C)(C)C)cc(c1O)Cc1cc(C(C)(C)CC(C)(C)C)cc(c1O)C2 ; yields the recorded call
N

// param item: CC[P+]1(CC)CCCC1 ; yields the recorded call
N

// param item: C/N=c1/ss/c(=N\C(SC)=[N+](C)C)n1C.[O-][Cl+3]([O-])([O-])[O-] ; yields the recorded call
N

// param item: CC1CCCN(CC(O)CN2CCCc3ccccc32)C1 (configuration not stated) ; yields the recorded call
N

// param item: CC(=O)/C(=C/NC(=S)Nc1ccccc1)C(=O)Nc1ccccc1C ; yields the recorded call
N

// param item: CCOC(=O)CCCN ; yields the recorded call
N

// param item: O=C1C2CC[C@@H]3C(=O)C(Cl)(Cl)[C@@H]3CCC2C1(Cl)Cl (some centres not stated) ; yields the recorded call
N
